Molecular target: T1, murine GPC3 (6938-GP; R&D systems), biotinylated (murine, UniProt Q8CFZ4 25-558, limits assumed, biotinylated using standard NHS chemistry)
T1 construct: Bought protein; also called mouse GPC3
T1 sequence (Q8CFZ4 25-558 limits assumed): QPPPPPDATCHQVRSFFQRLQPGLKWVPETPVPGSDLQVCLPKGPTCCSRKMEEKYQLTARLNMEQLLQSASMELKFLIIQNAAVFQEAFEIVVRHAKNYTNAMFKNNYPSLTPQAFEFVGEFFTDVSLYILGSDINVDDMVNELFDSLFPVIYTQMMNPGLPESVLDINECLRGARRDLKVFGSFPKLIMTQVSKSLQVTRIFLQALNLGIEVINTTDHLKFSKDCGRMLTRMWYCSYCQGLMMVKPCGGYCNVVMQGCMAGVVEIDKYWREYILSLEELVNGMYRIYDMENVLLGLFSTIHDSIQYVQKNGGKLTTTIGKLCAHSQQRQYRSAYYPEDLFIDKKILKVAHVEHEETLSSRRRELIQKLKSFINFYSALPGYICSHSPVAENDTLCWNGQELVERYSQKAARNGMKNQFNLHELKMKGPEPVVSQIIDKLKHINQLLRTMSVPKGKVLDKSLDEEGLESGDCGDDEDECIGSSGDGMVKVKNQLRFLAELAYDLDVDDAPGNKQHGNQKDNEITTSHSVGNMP
Experiment: SPR (Biacore T200), biotinylated GPC3 captured on chip, mutein in flow
parameterMeasured: kon

| binder | result |
| --- | --- |
| lipocalin mutein of SEQ ID NO: 3 (designed binder, hNGAL (Lcn2) mutein; also called non-optimized GPC3-specific Lcn2 mutein; mother clone) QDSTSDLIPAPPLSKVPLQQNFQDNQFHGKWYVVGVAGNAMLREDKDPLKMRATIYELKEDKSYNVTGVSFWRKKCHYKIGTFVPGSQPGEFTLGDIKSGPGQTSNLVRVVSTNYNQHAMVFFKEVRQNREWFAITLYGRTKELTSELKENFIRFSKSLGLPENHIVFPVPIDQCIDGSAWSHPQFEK | 450000 M⁻¹ s⁻¹ |
| lipocalin mutein of SEQ ID NO: 15 (designed binder, hNGAL (Lcn2) mutein; also called optimized GPC3 specific lipocalin mutein) QDSTSDLIPAPPLSKVPLQQNFQDNQFQGKWYVVGRAGNVGLREDKDPPKMRATIYELKEDKSYDVTGVRFGEKKIKYSIGTFVPGSQPGEFTLGQIKSQPGDTANLVRVVSTNYNQHAMVFFKEVYQNREIFFIILYGRTKELTSELKENFIRFSKSLGLPENHIVFPVPIDQAIDGSAWSHPQFEK | 1.3e+06 M⁻¹ s⁻¹ |
| lipocalin mutein of SEQ ID NO: 9 (designed binder, hNGAL (Lcn2) mutein; also called optimized GPC3 specific lipocalin mutein) QDSTSDLIPAPPLSKVPLQQNFQDNQFQGKWYVVGRAGNVGLREDKDPPKMWATIYELKEDKSYDVTNVRFARKKCTYSIGTFVPGSQPGEFTLGQIKSEPGGTANLVRVVSTNYNQHAMVFFKEVYQNREIFFIILYGRTKELTSELKENFIRFSKSLGLPENHIVFPVPIDQCIDGSAWSHPQFEK | 2e+06 M⁻¹ s⁻¹ |
